Biological target: A2A receptor (Homo sapiens)
Sequence (P29274 whole entry): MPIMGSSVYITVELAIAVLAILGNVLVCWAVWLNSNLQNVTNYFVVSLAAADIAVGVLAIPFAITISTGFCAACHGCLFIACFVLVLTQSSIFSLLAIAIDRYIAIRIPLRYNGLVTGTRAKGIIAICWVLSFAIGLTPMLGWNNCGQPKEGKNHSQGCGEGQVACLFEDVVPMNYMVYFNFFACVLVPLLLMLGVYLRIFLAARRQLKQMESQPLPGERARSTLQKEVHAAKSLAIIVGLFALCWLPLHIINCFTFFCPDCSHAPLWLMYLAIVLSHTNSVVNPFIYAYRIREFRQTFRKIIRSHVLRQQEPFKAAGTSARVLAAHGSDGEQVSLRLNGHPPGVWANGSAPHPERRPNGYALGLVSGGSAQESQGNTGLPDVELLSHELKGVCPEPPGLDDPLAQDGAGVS
Assay: Inhibition of cAMP production in HEK cells
Format: cell-based
Details: IC50 (nM) (5 μM Adenosine as agonist, 2.0% HSA), HEK-293 cells with A2A receptor, 5 μM Adenosine as agonist, 2.0% HSA
Protocol: When the A2A receptor is activated, is induces the production of cAMP. HEK-293 cells with a stable transfection of A2A receptor were bought from PerkinElmer® (# ES-011-C). […] Fresh media without the selection marker was added on the day immediately before the experiment to stop selection pressure. […] Compounds of the present invention were diluted 100× in either of the buffers depending on the assay performed. […] The TR-FRET signal was measured after 1 hour using a Spectramax Paradigm (Molecular Devices).
This listing pairs molecules with measured IC50.
Response body: numeric value in nM, unit text excluded.

Solved entries (count: 5):
> print(dat)
                                   molecule  experimental.endpoint  value.reported
1  CC(C)(O)c1ccc(N2CCN(CCn3c(=O)sc4c3nc(N)n3nc(-c5ccco5)nc43)CC2)c(F)c1                   IC50             747
2  Nc1nc2c(sc(=O)n2CCN2CCN(c3cc(O[C@@H]4CNC[C@H]4F)c(F)cc3F)CC2)c2nc(-c3ccco3)nn12 (stereo in doubt)                   IC50             168
3  Cn1cnc(COc2ccc(N3CCN(CCn4c(=O)sc5c4nc(N)n4nc(-c6ccco6)nc54)CC3)c(F)c2)n1                   IC50             378
4  NC(=O)COc1ccc(N2CCN(CCn3c(=O)sc4c3nc(N)n3nc(-c5ccco5)nc43)CC2)c(F)c1                   IC50             138
5  Nc1nc2c(sc(=O)n2CCN2CCN(c3ccc(S(N)(=O)=O)cc3)CC2)c2nc(-c3ccco3)nn12                   IC50            2170

So what does the record say about IC50 for NC(=O)c1ccc(N2CCN(CCn3c(=O)sc4c3nc(N)n3nc(-c5ccco5)nc43)CC2)cc1 ?
567

Requested field: IC50. Item: NC(=O)c1cccc(N2CCN(CCn3c(=O)sc4c3nc(N)n3nc(-c5ccco5)nc43)CC2)c1
352
